Tested on: PPARg DBDmut IVT, anti-PPARg (DBD mutation: PPARg1 K132A/R137A, NR concentration 270 nM)
Assay: PBM binding z-score (relative to random genomic background probes); higher = stronger binding; sequences stand for … in GC…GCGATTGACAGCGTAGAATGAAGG
Each entry gets 0.0 if its PBM binding z-score stays under 0.2, and 1.0 if its PBM binding z-score is 0.2 or above.

INPUT: Threshold query (PBM binding z-score >= 0.2) on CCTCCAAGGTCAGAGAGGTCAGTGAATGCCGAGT
OUTPUT: 0.0

INPUT: Threshold query (PBM binding z-score >= 0.2) on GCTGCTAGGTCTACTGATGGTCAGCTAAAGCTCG
OUTPUT: 0.0

INPUT: Threshold query (PBM binding z-score >= 0.2) on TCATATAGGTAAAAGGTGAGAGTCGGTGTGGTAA
OUTPUT: 1.0

INPUT: Threshold query (PBM binding z-score >= 0.2) on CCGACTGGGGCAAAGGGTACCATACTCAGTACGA
OUTPUT: 0.0

INPUT: Threshold query (PBM binding z-score >= 0.2) on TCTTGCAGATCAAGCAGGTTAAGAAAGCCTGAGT
OUTPUT: 0.0

INPUT: Threshold query (PBM binding z-score >= 0.2) on ATCTTTAGGTAAAGTTCAGTGAAAGATCGATAGA
OUTPUT: 1.0

INPUT: Threshold query (PBM binding z-score >= 0.2) on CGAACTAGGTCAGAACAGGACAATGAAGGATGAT
OUTPUT: 1.0

INPUT: Threshold query (PBM binding z-score >= 0.2) on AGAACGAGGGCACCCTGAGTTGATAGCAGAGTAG
OUTPUT: 0.0

INPUT: Threshold query (PBM binding z-score >= 0.2) on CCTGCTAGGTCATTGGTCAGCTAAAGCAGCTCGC
OUTPUT: 0.0

INPUT: Threshold query (PBM binding z-score >= 0.2) on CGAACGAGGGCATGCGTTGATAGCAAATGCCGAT
OUTPUT: 0.0

INPUT: Threshold query (PBM binding z-score >= 0.2) on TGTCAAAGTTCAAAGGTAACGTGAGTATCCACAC
OUTPUT: 1.0

INPUT: Threshold query (PBM binding z-score >= 0.2) on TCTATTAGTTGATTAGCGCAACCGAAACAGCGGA
OUTPUT: 1.0

INPUT: Threshold query (PBM binding z-score >= 0.2) on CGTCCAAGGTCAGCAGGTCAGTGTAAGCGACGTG
OUTPUT: 0.0

INPUT: Threshold query (PBM binding z-score >= 0.2) on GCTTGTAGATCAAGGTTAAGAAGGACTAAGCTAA
OUTPUT: 0.0

INPUT: Threshold query (PBM binding z-score >= 0.2) on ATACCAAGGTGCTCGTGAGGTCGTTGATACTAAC
OUTPUT: 1.0

INPUT: Threshold query (PBM binding z-score >= 0.2) on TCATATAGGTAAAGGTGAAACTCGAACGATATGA
OUTPUT: 1.0

INPUT: Threshold query (PBM binding z-score >= 0.2) on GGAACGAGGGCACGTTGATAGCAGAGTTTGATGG
OUTPUT: 0.0

INPUT: Threshold query (PBM binding z-score >= 0.2) on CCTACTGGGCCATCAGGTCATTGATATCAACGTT
OUTPUT: 0.0

INPUT: Threshold query (PBM binding z-score >= 0.2) on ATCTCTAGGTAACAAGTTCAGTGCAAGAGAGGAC
OUTPUT: 1.0

INPUT: Threshold query (PBM binding z-score >= 0.2) on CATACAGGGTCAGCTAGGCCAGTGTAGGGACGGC
OUTPUT: 1.0

INPUT: Threshold query (PBM binding z-score >= 0.2) on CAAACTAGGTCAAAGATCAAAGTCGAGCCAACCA
OUTPUT: 1.0

INPUT: Threshold query (PBM binding z-score >= 0.2) on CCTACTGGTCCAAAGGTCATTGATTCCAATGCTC
OUTPUT: 1.0

INPUT: Threshold query (PBM binding z-score >= 0.2) on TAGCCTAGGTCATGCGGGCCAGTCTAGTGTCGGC
OUTPUT: 0.0

INPUT: Threshold query (PBM binding z-score >= 0.2) on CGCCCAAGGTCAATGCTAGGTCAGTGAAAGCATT
OUTPUT: 0.0

INPUT: Threshold query (PBM binding z-score >= 0.2) on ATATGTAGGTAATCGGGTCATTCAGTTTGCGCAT
OUTPUT: 1.0

INPUT: Threshold query (PBM binding z-score >= 0.2) on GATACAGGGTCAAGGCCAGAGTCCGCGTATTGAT
OUTPUT: 0.0

INPUT: Threshold query (PBM binding z-score >= 0.2) on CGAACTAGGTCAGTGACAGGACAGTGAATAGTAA
OUTPUT: 1.0

INPUT: Threshold query (PBM binding z-score >= 0.2) on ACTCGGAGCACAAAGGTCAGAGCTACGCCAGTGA
OUTPUT: 0.0

INPUT: Threshold query (PBM binding z-score >= 0.2) on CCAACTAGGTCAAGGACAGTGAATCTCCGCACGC
OUTPUT: 1.0

INPUT: Threshold query (PBM binding z-score >= 0.2) on GCGACTGGGGCAAAGCTGGTTACCATAAGGTTGG
OUTPUT: 0.0

INPUT: Threshold query (PBM binding z-score >= 0.2) on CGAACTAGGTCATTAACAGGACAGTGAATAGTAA
OUTPUT: 1.0

INPUT: Threshold query (PBM binding z-score >= 0.2) on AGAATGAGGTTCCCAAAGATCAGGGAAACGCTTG
OUTPUT: 0.0

INPUT: Threshold query (PBM binding z-score >= 0.2) on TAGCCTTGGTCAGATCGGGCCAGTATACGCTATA
OUTPUT: 0.0

INPUT: Threshold query (PBM binding z-score >= 0.2) on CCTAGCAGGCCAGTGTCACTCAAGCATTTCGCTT
OUTPUT: 0.0

INPUT: Threshold query (PBM binding z-score >= 0.2) on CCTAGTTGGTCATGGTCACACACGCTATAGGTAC
OUTPUT: 1.0

INPUT: Threshold query (PBM binding z-score >= 0.2) on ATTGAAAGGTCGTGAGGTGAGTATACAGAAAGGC
OUTPUT: 1.0

INPUT: Threshold query (PBM binding z-score >= 0.2) on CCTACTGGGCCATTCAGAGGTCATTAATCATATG
OUTPUT: 0.0

INPUT: Threshold query (PBM binding z-score >= 0.2) on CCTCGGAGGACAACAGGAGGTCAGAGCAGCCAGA
OUTPUT: 0.0

INPUT: Threshold query (PBM binding z-score >= 0.2) on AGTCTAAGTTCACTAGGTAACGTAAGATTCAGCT
OUTPUT: 1.0

INPUT: Threshold query (PBM binding z-score >= 0.2) on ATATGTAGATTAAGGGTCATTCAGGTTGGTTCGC
OUTPUT: 1.0

Ref: the supplement of paper PMC6555819
